Target: recombinant human MEK 1 (MAPKK) and human ERK2 (MAPK) (Homo sapiens, UniProt P28482+Q02750)
Construct: The recombinant enzymes used were prepared as GST fusion proteins of human ERK 2 and human MEK 1
Sequence (Q02750 whole entry, the tested form may be a part): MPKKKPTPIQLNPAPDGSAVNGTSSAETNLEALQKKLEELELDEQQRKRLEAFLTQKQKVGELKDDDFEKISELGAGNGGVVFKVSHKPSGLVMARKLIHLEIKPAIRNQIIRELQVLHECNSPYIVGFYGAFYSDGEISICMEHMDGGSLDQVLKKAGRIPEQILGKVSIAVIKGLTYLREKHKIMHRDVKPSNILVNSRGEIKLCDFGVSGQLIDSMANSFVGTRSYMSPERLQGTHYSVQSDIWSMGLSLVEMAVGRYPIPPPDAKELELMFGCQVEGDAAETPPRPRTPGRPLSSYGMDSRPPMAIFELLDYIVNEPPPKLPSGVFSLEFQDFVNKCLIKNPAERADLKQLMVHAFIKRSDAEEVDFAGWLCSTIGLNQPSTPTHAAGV
Sequence (P28482 2-360): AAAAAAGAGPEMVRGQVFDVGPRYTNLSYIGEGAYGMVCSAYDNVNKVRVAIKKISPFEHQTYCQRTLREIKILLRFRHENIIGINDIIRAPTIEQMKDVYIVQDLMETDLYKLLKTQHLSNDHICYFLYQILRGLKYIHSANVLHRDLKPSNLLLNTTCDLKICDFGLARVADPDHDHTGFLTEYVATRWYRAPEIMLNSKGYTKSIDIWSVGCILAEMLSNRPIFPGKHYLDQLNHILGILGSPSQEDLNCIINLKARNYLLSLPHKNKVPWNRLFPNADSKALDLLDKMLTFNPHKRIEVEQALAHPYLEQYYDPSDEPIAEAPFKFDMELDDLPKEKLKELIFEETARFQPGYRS
Assay: Mitogen Activated Protein Kinase (MAPK) coupled assay (Mek-Erk)
Details: separate entries = repeat tests
Metric name: IC50 (µM)
Lab book: enter the figure in µM, no units written.

Q: Using the record for COC[C@@H]1CCCN1CC#CC(=O)Nc1ccc2ncc(C#N)c(Nc3cccc(Br)c3)c2c1 , report its IC50.
A: 80

---

Overview of reported melting point across a group of compounds:

COCCN(CC#CC(=O)Nc1ccc2ncc(C#N)c(Nc3cccc(Br)c3)c2c1)CCOC = 98 to 101 °C
COc1cc2ncc(C#N)c(Nc3ccc(F)c(Cl)c3)c2cc1N1CC1 = 197 to 199 °C
COCCN(C)CC#CC(=O)Nc1ccc2ncc(C#N)c(Nc3cccc(Br)c3)c2c1 = 95 °C (dec.)

Q: Using the record for C=CCN(C)CC#CC(=O)Nc1ccc2ncc(C#N)c(Nc3cccc(Br)c3)c2c1 , report its melting point.
A: 133 to 135 °C
